Provenance of the data: patent US20120276102A1

targetDesc: T1, murine IL-21R extracellular domain His-Flag fusion protein (murine, UniProt Q9JHX3 20-237)
T1 construct: Biotinylated in the ELISAs; also called mIL-21R-H/F; murine IL-21R-H/F
protocol: SPR, Ab captured on anti-human IgG
measurementLabel: pKd
Remember the convention: pKd equals -log10 of concentration in molar.

Here are 2 binders together with their reported answers.
| binder | pKd |
| --- | --- |
| AbR (antibody, human IgG1, V domains shown, CDR3 graft, residue limits derived as for m29; also called VH3/VL18; VH3DM/VL18) VH: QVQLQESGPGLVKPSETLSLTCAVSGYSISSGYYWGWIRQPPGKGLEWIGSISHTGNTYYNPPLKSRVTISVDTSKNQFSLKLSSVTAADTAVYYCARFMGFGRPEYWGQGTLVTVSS VL: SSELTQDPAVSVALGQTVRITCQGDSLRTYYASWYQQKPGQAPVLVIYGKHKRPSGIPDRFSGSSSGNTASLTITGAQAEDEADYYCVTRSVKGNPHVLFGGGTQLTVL | 7.19 |
| AbS (antibody, V domains shown, CDR3 graft, residue limits derived as for m29; also called VHP/VL6; VHPTM/VL6) VH: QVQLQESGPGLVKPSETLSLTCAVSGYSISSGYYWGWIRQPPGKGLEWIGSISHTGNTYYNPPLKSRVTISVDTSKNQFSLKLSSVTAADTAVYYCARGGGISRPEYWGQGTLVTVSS VL: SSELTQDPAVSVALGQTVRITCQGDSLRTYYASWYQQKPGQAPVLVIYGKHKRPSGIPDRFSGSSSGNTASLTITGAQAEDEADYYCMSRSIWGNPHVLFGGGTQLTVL | 7.78 |

Task item: pKd for parental 18A5 antibody (antibody, V domains shown, also called 18A5 IgG) VH: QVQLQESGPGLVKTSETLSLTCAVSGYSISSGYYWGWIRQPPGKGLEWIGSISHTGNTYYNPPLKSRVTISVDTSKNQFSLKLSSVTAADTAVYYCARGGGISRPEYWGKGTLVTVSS VL: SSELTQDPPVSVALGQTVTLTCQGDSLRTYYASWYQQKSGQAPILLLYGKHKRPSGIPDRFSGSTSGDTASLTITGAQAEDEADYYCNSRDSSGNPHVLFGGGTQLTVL ?
Reply: 7.14
